test: Two-compartment population PK model fitted to danoprevir plasma concentrations; format: in vivo, patients; details: human, plasma, oral
reported property: Cmax

smiles_text=CC(C)(C)OC(=O)N[C@H]1CCCCC/C=C\[C@@H]2C[C@@]2(C(=O)NS(=O)(=O)C2CC2)NC(=O)[C@@H]2C[C@@H](OC(=O)N3Cc4cccc(F)c4C3)CN2C1=O data_value="2.67 to 589 ng/mL"

* * *

assay: Two-compartment population PK model fitted to danoprevir plasma concentrations; type: in vivo, patients; details: human, plasma, oral
reported property: Vd/F (L)

compound="CC(C)(C)OC(=O)N[C@H]1CCCCC/C=C\\[C@@H]2C[C@@]2(C(=O)NS(=O)(=O)C2CC2)NC(=O)[C@@H]2C[C@@H](OC(=O)N3Cc4cccc(F)c4C3)CN2C1=O [danoprevir]" data_value=2100

Taken from paper PMC4400215.
